# Tested on: Inhibin beta A chain (activin A)
# test: INHBA (activin A) binders on microarrays, primary screen, biochemical, small-molecule microarray, 635 nm fluorescence scan (AID 1107);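 note: mouse activin A protein probed at 4.33 µg/mL on printed slides; score merges bound-protein fluorescence near 667 nm with spot signal-to-noise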
# settings: small-molecule microarray binding, higher = more signal
Field: composite z-score. Provide a value for each of the molecules that follow.
The answer should be a number; do not append a unit.

Qu. Provide value of composite z-score for this record tested with Inhibin beta A chain (activin A): COc1ccc(O[C@H]2C=C[C@@H](c3ccccc3)O[C@@H]2CO)cc1
Ans. 0.622

Qu. Provide value of composite z-score for this record tested with Inhibin beta A chain (activin A): O=C1[C@H]2[C@H]3[C@H](O)[C@H](O)CC(=NOC[C@@H](O)COCc4ccco4)[C@@H]3CC[C@H]2C(=O)N1Cc1ccccc1
Ans. 1.34

Qu. Provide value of composite z-score for this record tested with Inhibin beta A chain (activin A): COc1cccc([C@H]2Oc3ccc(OC)cc3C(=NO[C@@H](C)c3cc(-c4c(C)cc(C)cc4C)no3)[C@@H]2O)c1
Ans. 0.313

Qu. Provide value of composite z-score for this record tested with Inhibin beta A chain (activin A): C=CC[C@@H]1C=C[C@H](ON=C2C[C@@H](O)[C@@H](O)[C@@H]3[C@@H]4C(=O)N(CC)C(=O)[C@@H]4CC[C@@H]23)[C@@H](CO)O1
Ans. 0.535

Qu. Provide value of composite z-score for this record tested with Inhibin beta A chain (activin A): C[C@@H]1CC[C@H]2C(=O)O[C@@H](COc3ccc(C(C)(C)C)cc3)CN2[C@H]1c1ccc(Br)cc1
Ans. 0.0996

Qu. Provide value of composite z-score for this record tested with Inhibin beta A chain (activin A): CC(=O)OC[C@H]1O[C@H](CC=NO[C@@H](C)c2cn([C@H](CO)Cc3ccccc3)nn2)C=C[C@@H]1OC(C)=O
Ans. -0.383

Qu. Provide value of composite z-score for this record tested with Inhibin beta A chain (activin A): CO[C@@H]1[C@H](O)CO[C@H]1C=Cc1ccccc1
Ans. 0.512

Qu. Provide value of composite z-score for this record tested with Inhibin beta A chain (activin A): O=C1C=C[C@@H](O)[C@@H]2[C@@H]3C(=O)N(Cc4ccc5c(c4)OCO5)C(=O)[C@@H]3CC[C@@H]12
Ans. -0.513
